meta.source: patent US20240052052A1

- TESTED_TARGET: T1, human CD24 (human, UniProt P25063 27-59, heavily glycosylated, GPI-anchored (as described in the background))
- T1 construct: whole, on cells; Target of all cell-based FACS assays; also called hCD24; Cluster of differentiation 24
- T1 chain (looked up): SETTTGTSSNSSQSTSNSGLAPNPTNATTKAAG
- PROTOCOL_DETAILS: FACS, H1975 cells
- Procedure: Screening & Expansion: The subcloning plates were screened by Acumen assay and the subclones with good binding ability were expanded to 24-wells for confirmation tests. The specificity and cross-reactivity of these subclones were confirmed with FACs analysis. […] Fluorescent dye-conjugated secondary antibody was used to detect the binding of the primary antibody with the cells. Median fluorescence intensity (MFI) was measured by FACs analysis.
Reported FACS MFI by item:
Number only, please.

Some solved entries appear below for comparison.
- BINDER: "110D4G4 (antibody, V domains shown, mouse monoclonal antibody; also called mAb-110D4G4) VH: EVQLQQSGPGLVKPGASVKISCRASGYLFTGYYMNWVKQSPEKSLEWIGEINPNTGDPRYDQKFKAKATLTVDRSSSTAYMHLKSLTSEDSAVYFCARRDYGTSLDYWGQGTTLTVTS VL: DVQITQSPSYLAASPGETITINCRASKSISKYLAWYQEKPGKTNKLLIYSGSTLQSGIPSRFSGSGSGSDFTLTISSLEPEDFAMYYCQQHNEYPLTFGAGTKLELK"
  DATA_VALUE: 24900
- BINDER: "81A1F8 (antibody, V domains shown, mouse monoclonal antibody) VH: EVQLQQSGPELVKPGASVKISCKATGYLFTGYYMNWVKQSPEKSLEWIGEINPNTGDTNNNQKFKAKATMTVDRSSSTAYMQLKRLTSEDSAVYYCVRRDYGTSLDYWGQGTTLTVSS VL: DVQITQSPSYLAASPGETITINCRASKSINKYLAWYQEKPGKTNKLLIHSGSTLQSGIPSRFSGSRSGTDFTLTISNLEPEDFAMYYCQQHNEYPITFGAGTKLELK"
  DATA_VALUE: 10600
- BINDER: "71A4F12 (antibody, V domains shown, mouse monoclonal antibody) VH: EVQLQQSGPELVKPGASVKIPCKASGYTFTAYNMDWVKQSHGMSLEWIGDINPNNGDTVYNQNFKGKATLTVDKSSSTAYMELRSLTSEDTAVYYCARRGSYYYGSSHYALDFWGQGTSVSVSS VL: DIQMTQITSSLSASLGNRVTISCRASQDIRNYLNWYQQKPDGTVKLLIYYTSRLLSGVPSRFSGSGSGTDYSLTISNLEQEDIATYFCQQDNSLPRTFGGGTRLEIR"
  DATA_VALUE: 7200

# input What FACS MFI value was documented for this binder, 100F2E3 (antibody, V domains shown, mouse monoclonal antibody) VH: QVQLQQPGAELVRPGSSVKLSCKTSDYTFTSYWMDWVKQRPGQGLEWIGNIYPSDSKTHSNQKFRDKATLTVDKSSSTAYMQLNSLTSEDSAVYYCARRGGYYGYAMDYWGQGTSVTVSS VL: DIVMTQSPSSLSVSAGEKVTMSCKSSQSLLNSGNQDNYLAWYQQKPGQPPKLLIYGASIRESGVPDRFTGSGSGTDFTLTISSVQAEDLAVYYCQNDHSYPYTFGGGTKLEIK ?
# output 6900

# input Then what about the binder 58F10-1F6 (antibody, V domains shown, mouse monoclonal antibody) VH: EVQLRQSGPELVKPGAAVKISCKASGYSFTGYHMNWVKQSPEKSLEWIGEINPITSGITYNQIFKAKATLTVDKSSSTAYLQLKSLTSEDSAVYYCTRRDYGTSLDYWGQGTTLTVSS VL: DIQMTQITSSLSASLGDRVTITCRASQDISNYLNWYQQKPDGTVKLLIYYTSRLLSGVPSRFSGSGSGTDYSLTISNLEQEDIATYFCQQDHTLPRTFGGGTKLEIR ?
# output 17500

# input Then what about the binder 73H5-1G2 (antibody, V domains shown, mouse monoclonal antibody) VH: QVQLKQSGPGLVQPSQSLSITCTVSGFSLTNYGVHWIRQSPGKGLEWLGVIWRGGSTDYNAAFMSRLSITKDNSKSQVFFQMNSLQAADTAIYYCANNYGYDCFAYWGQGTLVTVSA VL: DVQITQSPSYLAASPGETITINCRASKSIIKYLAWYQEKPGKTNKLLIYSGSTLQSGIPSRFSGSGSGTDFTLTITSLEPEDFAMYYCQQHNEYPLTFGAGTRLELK ?
# output 2200

# input Then what about the binder SN3 (antibody, V domains shown) VH: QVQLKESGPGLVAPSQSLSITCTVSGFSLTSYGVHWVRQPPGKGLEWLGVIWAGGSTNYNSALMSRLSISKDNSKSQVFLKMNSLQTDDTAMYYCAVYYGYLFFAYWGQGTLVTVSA VL: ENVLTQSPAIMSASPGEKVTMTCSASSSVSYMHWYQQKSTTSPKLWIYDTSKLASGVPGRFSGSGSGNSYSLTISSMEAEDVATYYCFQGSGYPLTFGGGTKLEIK ?
# output 5210

# input Then what about the binder 56A7E3 (antibody, V domains shown, mouse monoclonal antibody) VH: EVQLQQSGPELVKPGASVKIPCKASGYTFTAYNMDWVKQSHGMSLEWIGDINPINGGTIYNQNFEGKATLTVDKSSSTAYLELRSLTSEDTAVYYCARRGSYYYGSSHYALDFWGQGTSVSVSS VL: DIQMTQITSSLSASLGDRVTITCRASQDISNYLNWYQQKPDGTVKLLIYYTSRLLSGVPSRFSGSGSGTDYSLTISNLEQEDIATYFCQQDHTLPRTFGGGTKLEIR ?
# output 2190
